Target: vanilloid receptor (VR1) (Homo sapiens, UniProt Q8NER1)
Construct: expressed in transfected cells; host or cells: CHO K1 cells (ECACC), stably transfected
Sequence (Q8NER1 whole entry): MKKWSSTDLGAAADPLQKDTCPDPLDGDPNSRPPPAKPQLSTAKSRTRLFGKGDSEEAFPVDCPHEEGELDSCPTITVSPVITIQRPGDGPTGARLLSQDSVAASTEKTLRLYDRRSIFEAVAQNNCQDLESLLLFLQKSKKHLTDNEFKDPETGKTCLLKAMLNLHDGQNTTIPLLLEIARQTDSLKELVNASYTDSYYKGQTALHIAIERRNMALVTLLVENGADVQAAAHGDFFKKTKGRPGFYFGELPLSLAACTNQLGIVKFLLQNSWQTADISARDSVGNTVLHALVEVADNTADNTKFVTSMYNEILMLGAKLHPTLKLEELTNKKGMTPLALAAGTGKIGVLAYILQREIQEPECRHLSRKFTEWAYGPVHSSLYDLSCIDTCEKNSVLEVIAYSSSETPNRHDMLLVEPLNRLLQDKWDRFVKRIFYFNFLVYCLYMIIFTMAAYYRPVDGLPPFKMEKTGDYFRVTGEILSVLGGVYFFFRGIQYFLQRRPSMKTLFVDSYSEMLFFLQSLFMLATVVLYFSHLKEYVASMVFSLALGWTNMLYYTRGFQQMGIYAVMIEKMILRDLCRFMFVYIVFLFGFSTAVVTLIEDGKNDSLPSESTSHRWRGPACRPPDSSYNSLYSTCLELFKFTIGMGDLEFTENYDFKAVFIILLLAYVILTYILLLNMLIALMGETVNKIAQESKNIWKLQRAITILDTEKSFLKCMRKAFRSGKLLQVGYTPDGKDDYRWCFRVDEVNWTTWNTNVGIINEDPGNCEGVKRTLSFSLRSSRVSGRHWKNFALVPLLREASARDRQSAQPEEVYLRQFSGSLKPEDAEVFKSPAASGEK
Assay: Functional testing on vanilloid receptor (VR1): FLIPR Ca2+ inflow assay in CHO K1 cells stably transfected with the VR1 gene
Format: cell-based
Settings: CHO-K1, stimulation compared to 10 μM CP (capsaicin)
Measured parameter: activation at 10 µM (%)
One number for each entry, in %.

Example entries begin here.
> print(dat)
                                   molecule   measured.parameter  uom  numeric.result
1  CC(C)(C)c1ccc(NC(=O)N2CCC3(CC2)CC(c2cccc(F)c2)=NO3)cc1  activation at 10 µM    %               3
2  O=C(/C=C/c1ccc(C(F)(F)F)nc1N1CCCCC1)N1CCC2(CC1)CC(c1ccccc1)=NO2  activation at 10 µM    %               0
3  CC1CN(C(=O)Nc2ccc(C(F)(F)F)cc2)CCC12CC(c1ccccc1)=NO2 (centres unmarked)  activation at 10 µM    %              -2

I'm hoping you can list activation at 10 µM for every molecule here, please.
1. COc1cccc(C2=NOC3(CCN(C(=O)Nc4cccc(SC)c4)CC3)C2)c1
2. CC(C)c1ccc(C=CC(=O)N2CCC3(CC2)CC(c2ccccc2)=NO3)cc1
3. COc1ccccc1NC(=O)N1CCC2(CC1)CC(c1ccc(C(C)(C)C)cc1)=NO2
4. O=C(Nc1cccc(C(F)(F)F)c1)N1CCC2(CC1)CC(c1ccccc1)=NO2
5. Cc1ccc(C2=NOC3(CCN(C(=O)Nc4ccc(Cl)c(C(F)(F)F)c4)CC3)C2)cc1
6. COc1cccc(C2=NOC3(CCN(C(=O)Nc4ccc(C(F)(F)F)cc4)CC3)C2)c1
7. CC(C)(C)c1ccc(NC(=O)N2CCC3(CC2)CC(c2ncccc2Cl)=NO3)cc1
8. CC(C)(C)c1ccc(C(/C=C/c2ccccc2)=C/C(=O)N2CCC3(CC2)CC(c2cccc(F)c2)=NO3)cc1

Result ::
0.01
0
8.56
-0.15
-0.28
-0.21
38
0

Each molecule below has a recorded value; state its activation at 10 µM.
1. COc1cccc(C2=NOC3(CCN(C(=O)/C=C/c4ccc(C(F)(F)F)nc4)CC3)C2)c1
2. CC(C)(C)c1ccc(C(/C=C/c2ccccc2)=C/C(=O)N2CCC3(CC2)CC(c2ccccc2)=NO3)cc1

Result ::
1. 0
2. -1

Give activation at 10 µM for all molecules that follow.
1. CCc1ccccc1NC(=O)N1CCC2(CC1)CC(c1cccc(OC)c1)=NO2
2. COc1cccc(C2=NOC3(CCN(C(=O)Nc4ccc(C)cc4)CC3)C2)c1
3. CSc1ccc(NC(=O)N2CCC3(CC2)CC(c2ccc(C)cc2)=NO3)cc1
4. CC(C)(C)c1ccc(NC(=O)N2CCC3(CC2)CC(c2ccc(Cl)cc2)=NO3)cc1

Result ::
1. 0.69
2. 0.29
3. -0.32
4. -0.07

Could you report activation at 10 µM for every entry in the following list?
1. COc1cccc(C2=NOC3(CCN(C(=O)Nc4ccc(C(C)(C)C)cc4)CC3)C2)c1
2. CC(C)(C)c1ccc(NC(=O)N2CCC3(CC2)CC(c2ccc(C(C)(C)C)cc2)=NO3)cc1
3. O=C(Nc1ccc(C(F)(F)F)cc1)N1CCC2(CC1)CC(c1ccccc1)=NO2

Result ::
9.37
4.12
-0.18

---

Target: rat-species vanilloid receptor 1 (VR1/TRPV1) (Rattus norvegicus, UniProt O35433)
Construct: endogenous in cells; host or cells: primary cells dissociated from rat dorsal root ganglia (DRG)
Sequence (O35433 whole entry): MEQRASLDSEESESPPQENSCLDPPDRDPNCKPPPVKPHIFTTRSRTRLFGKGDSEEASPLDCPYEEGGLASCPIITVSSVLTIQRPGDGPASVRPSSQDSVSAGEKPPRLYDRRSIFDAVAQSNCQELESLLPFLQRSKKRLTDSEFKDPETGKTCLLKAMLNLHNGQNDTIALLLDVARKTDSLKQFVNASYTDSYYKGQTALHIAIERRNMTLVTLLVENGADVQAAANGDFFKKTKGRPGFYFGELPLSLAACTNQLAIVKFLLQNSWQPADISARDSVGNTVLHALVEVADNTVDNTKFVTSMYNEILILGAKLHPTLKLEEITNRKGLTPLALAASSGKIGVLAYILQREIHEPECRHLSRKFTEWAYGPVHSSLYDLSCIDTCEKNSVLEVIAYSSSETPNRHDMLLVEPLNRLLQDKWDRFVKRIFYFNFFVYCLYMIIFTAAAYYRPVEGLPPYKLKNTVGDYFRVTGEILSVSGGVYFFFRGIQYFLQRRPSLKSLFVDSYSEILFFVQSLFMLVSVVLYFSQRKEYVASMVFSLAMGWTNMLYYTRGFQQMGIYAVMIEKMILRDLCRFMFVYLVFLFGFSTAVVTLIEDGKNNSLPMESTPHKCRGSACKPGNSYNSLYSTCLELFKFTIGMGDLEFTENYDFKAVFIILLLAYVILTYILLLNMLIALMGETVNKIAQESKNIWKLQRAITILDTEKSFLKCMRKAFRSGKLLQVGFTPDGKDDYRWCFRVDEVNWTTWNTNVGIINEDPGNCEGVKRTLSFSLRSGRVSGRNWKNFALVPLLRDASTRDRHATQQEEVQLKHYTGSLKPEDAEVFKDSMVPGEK
Experiment: Functional testing on vanilloid receptor 1 (VR1/TRPV1): FLIPR Ca2+ inflow assay in rat dorsal root ganglia cells (% activation / % inhibition vs capsaicin)
Type: cell-based
Conditions: inhibition compared to 10 μM CP (capsaicin)
Measured parameter: inhibition at 10 µM
A complete answer gives the number and then names the unit.

Consider the reported inhibition at 10 µM for these compounds:
> print(dat)
                                   compound  result
1  O=C(Nc1cccc(Br)c1)N1CCC2(CC1)CC(c1ccccc1)=NO2 [Compound 193]   43.6%
2  COc1cccc(C2=NOC3(CCN(C(=O)Nc4ccc(C(C)C)cc4)CC3)C2)c1 [Compound 77]   95.4%
3  COc1cccc(C2=NOC3(CCN(C(=O)Nc4cccc(Br)c4)CC3)C2)c1 [Compound 192]   52.1%
4  COc1cccc(C2=NOC3(CCN(C(=O)C#Cc4ccc(C(F)(F)F)cc4)CC3)C2)c1 [Compound 361]     58%
5  COc1ccc(NC(=O)N2CCC3(CC2)CC(c2cccc(OC)c2)=NO3)cc1 [Compound 47]   48.3%
6  O=C(Nc1ccccc1Oc1ccccc1)N1CCC2(CC1)CC(c1ccc(C(F)(F)F)cc1)=NO2 [Compound 103]   50.9%

Query :: Query (compound): CC(C)(C)c1ccc(NC(=O)N2CCC3(CC2)CC(c2ccc(C(C)(C)C)cc2)=NO3)cc1 [Compound 143] ; field requested: inhibition at 10 µM
Result :: 45.7%
